System name: PDE5A1 (human PDE5 from platelets) (Homo sapiens)
Construct: from tissue; host or cells: platelets from fresh blood of human donors (10,000 g supernatant of sonified platelets)
Experimental protocol: Inhibition of type 5 phosphodiesterase (PDE5) activity, modified SPA test
Type: biochemical
Particulars: PDE5-containing human platelet lysate, 0.5 μM cGMP, value classes, read-out: PDE5A1 inhibitory values [measured as −logIC50 (mol/l)] (converted)
Measurement kind: IC50

Return reported IC50 for target or system PDE5A1 (human PDE5 from platelets) (Homo sapiens), item CCC(=O)N[C@H]1CC[C@H](NC(=O)c2c(C)[nH]c3c(-c4cc(F)c(OC)cc4OCC4CC4)ccnc23)CC1 .
< 1 nM

Return reported IC50 for target or system PDE5A1 (human PDE5 from platelets) (Homo sapiens), item COc1ccc(OCC2CC2)c(-c2ccnc3c(C(=O)NC4CN(C(=O)C(C)O)CC4O)c(C)[nH]c23)c1 (mixture of isomers) .
1 to 10 nM

---
Return reported IC50 for target or system PDE5A1 (human PDE5 from platelets) (Homo sapiens), item Cc1[nH]c2c(-c3ccc(F)cc3OCC3CC3)ccnc2c1C(=O)N[C@H]1CC[C@H](NC(=O)CO)CC1 .
1 to 10 nM

Return reported IC50 for target or system PDE5A1 (human PDE5 from platelets) (Homo sapiens), item COCC(=O)N1CC[C@@H](NC(=O)c2c(C)[nH]c3c(-c4cc(F)ccc4OCC4CC4)ccnc23)[C@H](O)C1 (relative stereo) .
1 to 10 nM

Return reported IC50 for target or system PDE5A1 (human PDE5 from platelets) (Homo sapiens), item COc1cc(-c2ccnc3c(C(=O)N[C@@H]4CCN(C(C)=O)C[C@H]4O)c(C)[nH]c23)c(OCC2CC2)cc1F (relative stereo) .
< 1 nM

Return reported IC50 for target or system PDE5A1 (human PDE5 from platelets) (Homo sapiens), item CCC(=O)N[C@H]1CC[C@@H](NC(=O)c2c(C)[nH]c3c(-c4cc(OC)ccc4OCC4CC4)ccnc23)CC1 .
1 to 10 nM
